- ASSAY_EXPLANATION: inhibitors of the yeast RAM network, primary screen, dse1pr::URA3 reporter, 5-FOA selection (AID 868);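 also: 0% = DMSO-only wells with no growth and 100% = 10 µM 1-NA-PP1 full growth; inhibition rescues growth on 5-FOA so higher OD means more RAM inhibition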
- MEASUREMENT_CONTEXT: S. cerevisiae dse1pr::URA3 reporter, 5-FOA growth OD615, 2 d; at 50 µM; hits give high values; analog-sensitive cbk1-as2 kinase mutant strain
Screen size: about 190,000 compounds; about 3,500 (1.8%) were called active. What follows is part of a selection rich in actives, with near analogues and random picks from the rest.
Give inhibition for every item shown.
Value expressed in %; do not type the unit.

The compound listed as O=C(CSc1nc2ccccc2o1)N1c2ccccc2Sc2ccc(Cl)cc21 shows inhibition equal to 3.58

The compound listed as Cc1ccc(C2CC(c3cccc(NS(C)(=O)=O)c3)=NN2S(C)(=O)=O)cc1 (stereo not given) shows inhibition equal to 0.38

The compound listed as COc1cc(C)c(S(=O)(=O)N2CCOCC2)c(C)c1C shows inhibition equal to 0.98

The compound listed as CCN(CC(=O)NCc1cccs1)C(=O)c1ccccc1F shows inhibition equal to 1.03

The compound listed as COc1ccc(C(=O)COC(=O)c2ccc3ccccc3n2)cc1 shows inhibition equal to -0.53

The compound listed as O=c1c2ccccc2c(-c2ccccc2)nn1Cc1ccccc1 shows inhibition equal to 6.51

The compound listed as CCOC(=O)c1cc2sccc2n1Cc1ccc(C#N)cc1 shows inhibition equal to 8.47

The compound listed as S=C1Nc2cc(Cl)ccc2Sc2ccccc21 shows inhibition equal to 0

The compound listed as CN(C)C(CNC(=O)Cc1ccc([N+](=O)[O-])cc1)c1ccccc1 (stereo not given) shows inhibition equal to -0.62

The compound listed as Cc1nn(-c2ccccc2)c(Cl)c1/C=C/C(=O)c1ccc(O)cc1 shows inhibition equal to 8.5
